Source listed as the supplement of paper PMC11732987.

# log2 ratio of Biotin-Ahx-Ub-VS probe labelling listing for each entry below
Biological target: USP42 (UniProt Q9H9J4)
Sequence (Q9H9J4 whole entry, the tested form may be a part): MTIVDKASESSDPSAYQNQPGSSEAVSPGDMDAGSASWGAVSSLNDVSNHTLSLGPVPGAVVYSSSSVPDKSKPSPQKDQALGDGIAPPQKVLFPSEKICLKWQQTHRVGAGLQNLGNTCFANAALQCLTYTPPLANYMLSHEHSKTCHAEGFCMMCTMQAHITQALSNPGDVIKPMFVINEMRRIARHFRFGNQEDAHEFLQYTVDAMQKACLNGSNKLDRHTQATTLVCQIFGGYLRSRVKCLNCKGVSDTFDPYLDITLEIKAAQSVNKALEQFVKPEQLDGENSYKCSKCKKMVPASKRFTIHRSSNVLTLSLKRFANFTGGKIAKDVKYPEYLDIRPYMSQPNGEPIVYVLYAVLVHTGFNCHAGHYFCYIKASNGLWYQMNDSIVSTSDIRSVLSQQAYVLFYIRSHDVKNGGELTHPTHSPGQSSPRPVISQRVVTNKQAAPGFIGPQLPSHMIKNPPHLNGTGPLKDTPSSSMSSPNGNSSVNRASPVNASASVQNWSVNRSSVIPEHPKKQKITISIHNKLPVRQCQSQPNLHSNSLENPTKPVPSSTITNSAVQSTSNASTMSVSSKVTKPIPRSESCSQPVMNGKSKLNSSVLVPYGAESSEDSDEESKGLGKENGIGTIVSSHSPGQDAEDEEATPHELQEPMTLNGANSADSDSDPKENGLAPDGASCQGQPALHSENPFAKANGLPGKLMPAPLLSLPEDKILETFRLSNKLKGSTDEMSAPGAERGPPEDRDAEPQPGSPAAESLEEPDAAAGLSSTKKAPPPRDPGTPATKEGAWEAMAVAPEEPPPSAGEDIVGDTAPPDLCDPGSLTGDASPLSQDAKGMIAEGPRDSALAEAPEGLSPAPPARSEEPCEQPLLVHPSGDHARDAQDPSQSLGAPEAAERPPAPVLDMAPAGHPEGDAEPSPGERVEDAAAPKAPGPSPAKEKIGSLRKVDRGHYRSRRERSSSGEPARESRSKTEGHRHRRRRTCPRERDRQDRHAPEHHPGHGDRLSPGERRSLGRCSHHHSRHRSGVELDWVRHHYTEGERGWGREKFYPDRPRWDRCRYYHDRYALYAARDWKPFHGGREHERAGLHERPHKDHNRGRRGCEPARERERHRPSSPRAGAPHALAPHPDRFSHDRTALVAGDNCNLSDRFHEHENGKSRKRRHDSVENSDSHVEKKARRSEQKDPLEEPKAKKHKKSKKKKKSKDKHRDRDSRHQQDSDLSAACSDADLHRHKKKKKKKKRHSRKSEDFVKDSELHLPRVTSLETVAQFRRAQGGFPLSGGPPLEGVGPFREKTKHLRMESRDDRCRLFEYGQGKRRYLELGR
Assay: log2 ratio of Biotin-Ahx-Ub-VS probe labelling (fragment/DMSO); higher = less target engagement (more negative = stronger competition), active = hit call of the paper (q ≤ 0.05, log2 ratio ≤ -1)
Settings: compound concentration: 200 uM; treatment time: 3 h

compound | observed.result
O=C(CCl)N1CCc2nc[nH]c2C1c1ccc(Cl)cc1 (stereo not drawn) | -0.0471 (inactive)
Cl.Cn1ncc2c1CCCC2NC(=O)CCl (stereo not drawn) | 0.564 (inactive)
Cl.O=C(CN1CCN(C(=O)CCl)CC1)Nc1ccc(F)cc1 | 0.733 (inactive)
Cc1ccc(C(=O)NCCNC(=O)CCl)cc1 | -0.216 (inactive)
O=C(CCl)N1CCOCC1C1CC1 (stereo not drawn) | -0.112 (inactive)

Request: Consider the compound shown here: `O=C(CCl)Nc1cccc(C(=O)N2CCSCC2)c1` What is its recorded log2 ratio of Biotin-Ahx-Ub-VS probe labelling?
Response: 0.397 (inactive)

Request: # iterate: `O=C(CCl)N1c2ccccc2NC(=O)C12CCCC2`
Response: 0.622 (inactive)

Request: # iterate: Cc1ccc(N2CCC(NC(=O)CCl)C2=O)cc1 (stereo not drawn)
Response: -0.0605 (inactive)

Request: # iterate: COCC1C=CCCN1C(=O)CCl (stereo not drawn)
Response: -0.485 (inactive)

Request: # iterate: `O=C(CCl)N1CC=C(c2c[nH]c3ccccc23)CC1`
Response: 0.0977 (inactive)

Request: # iterate: `Cc1nc(-c2cccc(NC(=O)CCl)c2)cs1`
Response: 0.339 (inactive)

Request: # iterate: `Cl.Cn1cnc2cc(CNC(=O)CCl)ccc21`
Response: 0.00921 (inactive)

Request: # iterate: O=C(CCl)NC1CCCCNC1=O (stereo not drawn)
Response: 0.0716 (inactive)
